Assay: Mouse PK evaluation, plasma, IV
Conditions: CD-1, mouse, in vivo, 3 mg/kg, Plasma concentration, Mouse 3, 3 mg/kg IV, CD-1 mice, 2 h
MEASURED QUANTITY: concentration at 2 h (ng/mL)
One number for each entry, in ng/mL.

Supply measured concentration at 2 h of CN(C)CCCn1c(N)nc2ccc3c(c21)CC(CN(C)C)O3 (single isomer, unassigned) [Compound E1] in your reply.
19.2

* * *

Assay: Mouse PK evaluation, plasma, IV
Conditions: CD-1, mouse, in vivo, 3 mg/kg, Plasma concentration, Mouse 3, 3 mg/kg IV, CD-1 mice, 8 h
MEASURED QUANTITY: concentration at 8 h (ng/mL)
Answers are plain numbers, in ng/mL.

Supply measured concentration at 8 h of CN(C)CCCn1c(N)nc2ccc3c(c21)CC(CN(C)C)O3 (single isomer, unassigned) [Compound E1] in your reply.
10.2
